test system: K. pneumoniae (ATCC10031); assay: 50% growth inhibitory concentration (IC50) determination assay; format: cell-based; details: Klebsiella pneumoniae, Iso-Sensitest broth, 0.098 = detection limit
EXPERIMENTAL_READOUT: IC50

CNc1cc(F)c(F)c2c1[nH]c1ncc(-c3cnc4c(c3)c(=O)c(C(=O)O)cn4C)c(N3CCC[C@H](N(C)C)C3)c12 [Example 3.06B] = < 0.098 µM
CNc1cc(F)c(F)c2c1[nH]c1ncc(-c3cnc4c(c3)c(=O)c(C(=O)O)cn4C3CCN(C)C3)c(N3CCC(F)(F)C3)c12 (stereo not drawn) = < 0.098 µM

# input Consider the molecule "CNc1cc(F)cc2c1[nH]c1ncc(-c3cnc4c(c3)c(=O)c(C(=O)O)cn4C)c(N3CC[C@H](N(C)C)C3)c12" and give its measured IC50.
# output < 0.098 µM

---

Catalogue of CC50 at 3 days values
assay: Cytotoxicity assay (HepG2, CellTiter-Blue cell viability); format: cell-based; details: human; HepG2 cells, 3 days treatment; "*": the detection limit; read-out: CC50

CNc1cc(F)c(F)c2c1[nH]c1ncc(-c3cnc4c(c3)c(=O)c(C(=O)O)cn4C)c(N3CC[C@@H](O)C3)c12 = 37.2 µM

# input Fill blank: measured CC50 at 3 days of the compound CNc1cc(F)cc2c1[nH]c1ncc(-c3cnc4c(c3)c(=O)c(C(=O)O)cn4C)c(N3CCO[C@@H](CN(C)C)C3)c12 [Example 3.02A] is ____.
# output > 100 µM

# input // CC50 at 3 days lookup, key: CNc1cc(F)c(F)c2c1[nH]c1ncc(-c3cnc4c(c3)c(=O)c(C(=O)O)cn4CC3CNCCO3)c(N3CCOCC3)c12 (stereo not drawn)
# output > 100 µM

---

assay: Single dose PK study (SDPK) in female CD-1 mouse; type: in vivo; conditions: MOUSE IV, 1.0 mg/kg-Solution
EXPERIMENTAL_READOUT: AUC total (ng·h/mL)

CNc1c(F)c(F)cc2c1[nH]c1ncc(-c3cnc4c(c3)c(=O)c(C(=O)O)cn4C3CCNC3)c(N(C)C)c12 (stereo not shown) = 165.9
CNc1cc(F)c(F)c2c1[nH]c1ncc(-c3cnc4c(c3)c(=O)c(C(=O)O)cn4C)c(N3CC[C@H]4CN(C)CC43)c12 (stereo partly shown) = 177.0
CNc1cc(F)c(F)c2c1[nH]c1ncc(-c3cnc4c(c3)c(=O)c(C(=O)O)cn4C)c(N3CC[C@H]4CN(C)C[C@H]43)c12 [Example 3.03A] = 249.6
CNc1cc(F)c(F)c2c1[nH]c1ncc(-c3cnc4c(c3)c(=O)c(C(=O)O)cn4NC)c(N3CC[C@@H]4CN(C)C[C@@H]43)c12 [Example 3.01B] = 156.1
CNc1cc(F)cc2c1[nH]c1ncc(-c3cnc4c(c3)c(=O)c(C(=O)O)cn4CC(C)O)c(N3CCOCC3)c12 (stereo not shown) = 211.3
CNc1cc(F)c(F)c2c1[nH]c1ncc(-c3cnc4c(c3)c(=O)c(C(=O)O)cn4C)c(N3CC[C@H]4CCN(C)C4C3)c12 (stereo partly shown) = 177.4
CNc1cc(F)c(C#N)c2c1[nH]c1ncc(-c3cnc4c(c3)c(=O)c(C(=O)O)cn4C)c(N3CC[C@H]4CN(C)C[C@H]43)c12 = 274.0
